Where do these numbers come from? They come from PubChem BioAssay.

# Assay Comment: binders of probe aFGF10 on microarray, primary screen, stem cell growth factor project, biochemical, small-molecule microarray, fluorescence 635/667 (AID 1071);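 also: score merges 667 nm spot intensity and signal to noise from triplicate slides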
# Applied Conditions: higher = more signal
We use 0.3 as the dividing line for composite z-score: on or above the line is Criterion met, below is Criterion not met.

| Compound | Label Value |
| --- | --- |
| C=CCNC(=O)[C@@H]1[C@H]2C(=O)O[C@H](c3ccccc3)[C@H](c3ccccc3)N2[C@H](c2ccc(O)cc2)[C@@]12C(=O)N(C(=O)OCCOC)c1ccccc12 | Criterion met |
| CCOC(=O)[C@H]1C[C@H]2O[C@@]23C[C@H]1C(=O)N1CCCC1[C@@H]3O[Si](C)(C)C(C)(C)C (stereo partly specified) | Criterion not met |

Does composite z-score meet or surpass 0.3 for COC(=O)[C@@]1(Cc2ccc(OC)cc2)[C@H]2c3cc(C(=O)N4CCCC4)n(Cc4cc(F)cc5c4OCOC5)c3C[C@H]2CN1C(=O)c1ccccc1 ?
Criterion met

# check: composite z-score of O=C1OCCC=C[C@H]2OC34C=CCN(c5ccc6ccccc6c5)C(=O)[C@H]3N(CCCCCO)C(=O)[C@@H]4C12 (stereo partly specified) is greater than or equal to 0.3
Criterion not met

Check the entry CCOC(=O)C[C@H]1[C@H](OC(=O)c2ccc(-c3ccccc3)cc2)[C@@H](NC(=O)c2ccc3ccccc3c2)c2cc(OCCCO)ccc2N1C(=O)Cc1ccc(OC)cc1 : does composite z-score equal or exceed 0.3?
Criterion not met

Test whether the compound O=C1O[C@H](c2ccccc2)[C@H](c2ccccc2)N2[C@H]1[C@@H](C(=O)N1CCN(c3ncccn3)CC1)[C@]1(C(=O)Nc3ccccc31)[C@H]2c1ccc(OCCO)cc1 records composite z-score of 0.3 or higher.
Criterion met

* * *

Task for the reader: assign each of the following compounds its reported composite z-score.
# Tested Target: Neurogenic locus notch homolog protein 2 (Homo sapiens)
# Assay Comment: Notch2 binders on small-molecule microarrays, primary screen, biochemical, small-molecule microarray, 635 nm fluorescence, stem cell growth factors (AID 1073)
# Applied Conditions: Notch2 binding, higher = more signal
Answers are plain numbers.

Known composite z-score results, listed for orientation:
| Compound | composite z-score |
| --- | --- |
| Cc1ccccc1C(O)C1C=CC2C(=O)N(C)C(=O)C2N1Nc1ccccc1 (stereo not drawn) | 1.22 |
| CC(C)C[C@@H]1NC(=O)[C@H]2C[C@@H](C(=O)NCCCCCCNC(=O)CS)[C@@H](c3cccc(OCCO)c3)N2C1=O | 1.39 |
| COc1ccccc1CN1C(=O)c2ccccc2[C@@H](C(=O)NCCN2CCOCC2)[C@@H]1c1ccc(CO)cc1 | 0.159 |
| CC(C)C(O)C1C=CC2C(=O)N(c3ccccc3)C(=O)C2N1Nc1ccc(C#N)cc1 (stereo not drawn) | 1.7 |

Lab note: each compound below needs its composite z-score filled in.
1. N#Cc1ccc(NN2C(C(O)c3ccc([N+](=O)[O-])cc3)C=CC3C(=O)N(c4ccccc4)C(=O)C32)cc1 (stereo not drawn)
2. C=CCNC(=O)[C@@H]1[C@H]2C(=O)O[C@H](c3ccccc3)[C@H](c3ccccc3)N2[C@H](c2ccc(O)cc2)[C@@]12C(=O)N(C(=O)OCCOC)c1ccccc12
3. CC(C)C(=C=CC[C@H](O)c1cccc(OCCO)c1)C[C@H](O)COCc1ccccc1
4. [N-]=[N+]=NCc1ccccc1C[C@]1(C(=O)O)N=C(c2ccc(OCCCO)cc2)O[C@H]1c1ccccc1CN=[N+]=[N-]

1: 1.59; 2: 0.369; 3: -0.139; 4: 0.591
